target: human Factor IXa (human, UniProt P00740 47-191; P00740 227-461); assay: cell-based or functional assay
Bridge positions count the residues as written; N and C are the ends. Square brackets hold non-standard residues; d marks the D form. Primed or numbered codes have the meaning given here. Side chains are listed from the residue outwards. Ends that are not written are not given here. * marks the point of attachment. Biotin = O=C1N[C@H]2[C@H](CS[C@H]2CCCCC(=O)*)N1; PEG2(3) = PEG2 spacer carrying biotin on Lys; NMeL = CN[C@@H](CC(C)C)C(=O)O; NMeA = CN[C@@H](C)C(=O)O
For each of the binders below, state its EC50 [µM], FXa generation assay.

Reported EC50 [µM], FXa generation assay ( DAKVAKLRCLGSQCWLLQYAPG ) = < 0.5 µM

Briefly, EC50 [µM], FXa generation assay measured for [dK]LTCLASYCWLF (not fully specified; cysteine pairing not given here) [kLTCLASYCWLF] : < 0.5 µM

response.value for [dR]RAAGKATCLASACWLAATGIA (not fully specified (C-terminus); printed as rRAAGKATCLASACW LAATGIA; cysteine pairing not given here) [rRAAGKATCLASACW LAATGIA] (field: EC50 [µM], FXa generation assay) = > 10 µM

Consider [dK][NMeL]TCLASYCWLF (not fully specified (residue 8); cysteine pairing not given here) [k-MeLeu-TCLAS-(Y-OMe)-CWLF] . Its measured EC50 [µM], FXa generation assay is < 0.5 µM

Kindly note the recorded EC50 [µM], FXa generation assay for RRAPGKK([PEG2(3)-Biotin])TCLASYCWLFWTGIA (cysteine pairing not given here) [RRAPGKK(PEG2-Biotin)TCLASYCWLFWTGIA] , which is > 5 µM

Given item VSGTGKLTCLASYCWLFQLGSF , the value recorded as its EC50 [µM], FXa generation assay is < 0.5 µM

# EC50 [µM], FXa generation assay of KKKKLTCLASYCWLFKKK = > 5 µM

Measured EC50 [µM], FXa generation assay of GFGSRKLTSLASYGWLIQDRLP : > 50 µM

Lab book: EC50 [µM], FXa generation assay of TLWPWGGQGGRNAPGKLTCLASYCWLFWTGIA [TLWPWGGQGG RNAPG KLTCLASYCWLFWTGIA] noted as > 1 µM

Value of measured EC50 [µM], FXa generation assay for the entry VARASKVECLASYCQLFVGGEV : > 1 µM

Value of measured EC50 [µM], FXa generation assay for the entry RR[NMeA]PGKLTCLASYCWLFWTGIA (disulfide 9-14 (inferred); not fully specified (C-terminus); printed as RR-MeAla-PGKLTCLASYCWLFWTGIA) [RR-MeAla-PGKLTCLASYCWLFWTGIA] : < 0.5 µM

Record AWPYHKPTCLASQCWQFLAQGS . Reported EC50 [µM], FXa generation assay: > 50 µM
